Reported Relative activity (%) values are given for each entry in this list.
System: ketose 3-epimerase (present enzyme, purified enzyme of wild strain)
Assay: Substrate specificity of ketose 3-epimerase using 8 kinds of ketohexoses
Assay type: biochemical, Arthrobacter histidinolovorans Y586-1 strain
Settings: each substrate 0.1 M, phosphate buffer pH 8.0, 70° C., 10 min; epimerization activity for D-allulose = 100

molecule	units.text	Relative activity (%)
O=C(CO)[C@H](O)[C@H](O)[C@H](O)CO [D-allulose]	%	100.0
O=C(CO)[C@H](O)[C@H](O)[C@@H](O)CO [L-tagatose]	%	59.2
O=C(CO)[C@@H](O)[C@@H](O)[C@H](O)CO [D-tagatose]	%	72.2
O=C(CO)[C@@H](O)[C@H](O)[C@H](O)CO [D-fructose]	%	43.4
